# assay_target: recombinant homotrimeric HA A/South Carolina/1/18 H1N1 (Influenza A virus A/South Carolina/1/18 (H1N1))
# test_details: protein microarray, purified IgG, trimeric HA
# conditions_used: remark: other sources report otherwise
Record form. Attribute: Trimeric HA Binding: RLU. Fill in for each entry.
Answer with a number only, understood to be in RLU.

So what's the measured Trimeric HA Binding: RLU for this one? TCN-551 (5243_D01) (antibody, V domains shown) VH: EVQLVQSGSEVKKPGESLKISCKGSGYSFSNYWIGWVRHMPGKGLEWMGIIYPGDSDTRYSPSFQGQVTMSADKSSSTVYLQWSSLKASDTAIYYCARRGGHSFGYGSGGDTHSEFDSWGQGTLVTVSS VL: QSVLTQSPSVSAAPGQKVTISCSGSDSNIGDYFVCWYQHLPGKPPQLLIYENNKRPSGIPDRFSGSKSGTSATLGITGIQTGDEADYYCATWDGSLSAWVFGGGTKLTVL
10300

Trimeric HA Binding: RLU lookup needed for TCN-535 (5246_P19) (antibody, V domains shown) VH: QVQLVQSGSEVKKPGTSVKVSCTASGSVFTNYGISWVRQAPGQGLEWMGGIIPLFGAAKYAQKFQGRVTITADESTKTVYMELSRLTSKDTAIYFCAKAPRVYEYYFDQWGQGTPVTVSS VL: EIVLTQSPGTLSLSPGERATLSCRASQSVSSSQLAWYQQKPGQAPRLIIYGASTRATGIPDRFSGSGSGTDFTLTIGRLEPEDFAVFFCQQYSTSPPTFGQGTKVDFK , thanks.
5660

Request the reported Trimeric HA Binding: RLU associated with TCN-546 (5089_L08) (antibody, V domains shown) VH: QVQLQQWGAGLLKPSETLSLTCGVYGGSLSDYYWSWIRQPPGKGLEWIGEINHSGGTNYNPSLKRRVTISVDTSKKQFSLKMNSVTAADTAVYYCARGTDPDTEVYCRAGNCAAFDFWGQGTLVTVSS VL: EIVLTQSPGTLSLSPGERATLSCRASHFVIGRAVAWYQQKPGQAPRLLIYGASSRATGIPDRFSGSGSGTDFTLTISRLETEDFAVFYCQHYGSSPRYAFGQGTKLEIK
88

Could you share which Trimeric HA Binding: RLU value was measured for TCN-539 (5056_A08) (antibody, V domains shown) VH: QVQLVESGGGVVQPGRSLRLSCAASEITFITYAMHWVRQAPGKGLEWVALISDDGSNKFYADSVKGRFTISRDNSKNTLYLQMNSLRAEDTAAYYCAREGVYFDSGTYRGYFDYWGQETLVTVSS VL: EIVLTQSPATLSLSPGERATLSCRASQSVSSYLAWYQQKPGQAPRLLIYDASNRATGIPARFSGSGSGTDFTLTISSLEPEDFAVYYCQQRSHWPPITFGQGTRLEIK ?
60

Query: Trimeric HA Binding: RLU; subject: TCN-537 (3194_D21) (antibody, V domains shown) VH: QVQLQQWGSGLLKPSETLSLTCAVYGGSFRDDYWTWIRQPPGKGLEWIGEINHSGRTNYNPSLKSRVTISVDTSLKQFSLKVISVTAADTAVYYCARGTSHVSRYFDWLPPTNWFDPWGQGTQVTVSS VL: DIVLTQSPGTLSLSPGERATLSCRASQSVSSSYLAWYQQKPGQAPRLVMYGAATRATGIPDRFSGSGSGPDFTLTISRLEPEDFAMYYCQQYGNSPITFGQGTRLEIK
2840

// returns reported Trimeric HA Binding: RLU for input TCN-527 (5086_C06) (antibody, V domains shown) VH: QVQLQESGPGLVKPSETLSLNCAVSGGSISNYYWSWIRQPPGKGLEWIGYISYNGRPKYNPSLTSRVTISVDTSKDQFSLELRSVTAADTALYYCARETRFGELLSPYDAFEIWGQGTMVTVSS VL: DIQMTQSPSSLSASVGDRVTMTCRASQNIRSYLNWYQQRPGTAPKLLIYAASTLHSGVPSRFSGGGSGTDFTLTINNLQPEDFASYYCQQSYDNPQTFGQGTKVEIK
314

Fill blank: measured Trimeric HA Binding: RLU of the binder TCN-534 (5249_B02) (antibody, V domains shown) VH: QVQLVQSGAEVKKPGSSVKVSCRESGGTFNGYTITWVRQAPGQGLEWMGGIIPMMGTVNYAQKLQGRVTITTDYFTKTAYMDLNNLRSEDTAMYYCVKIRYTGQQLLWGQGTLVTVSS VL: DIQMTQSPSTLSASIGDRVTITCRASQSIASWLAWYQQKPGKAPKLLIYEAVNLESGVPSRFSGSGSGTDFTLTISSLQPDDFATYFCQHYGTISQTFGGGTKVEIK is ____.
9240
